# Test system: Klebsiella pneumoniae
# Method description: Inhibition of Klebsiella pneumoniae KP1081 NDM-1 assessed as minimum concentration of compound required to reduce the MIC of biapenem to 1 ug/ml
Quick reference for MEC among some compounds
Parameter measured: MEC (µg/mL)

>>> value_reported("COc1ccc2c(c1C(=O)O)OB(O)[C@@H](CCO)C2")
2.5
>>> value_reported("O=C(O)c1c(OC(F)F)ccc2c1OB(O)[C@@H](Sc1nncs1)C2")
1.25
>>> value_reported("CO[C@H]1Cc2cccc(C(=O)O)c2OB1O")
0.6
>>> value_reported("O=C(O)c1cccc2c1OB(O)[C@@H](OC1CNC1)C2")
0.6
>>> value_reported("COc1ccc2c(c1C(=O)O)OB(O)C(F)=C2")
5
>>> value_reported("CS[C@H]1Cc2cccc(C(=O)O)c2OB1O")
0.6
>>> value_reported("COc1ccc2c(c1C(=O)O)OB(O)[C@@H]1C[C@H]21")
0.3
>>> value_reported("N#CCOc1ccc2c(c1C(=O)O)OB(O)[C@@H](Sc1nncs1)C2")
2.5
>>> value_reported("O=C(O)c1c(F)ccc2c1OB(O)[C@@H]1C[C@H]21")
0.6
>>> value_reported("COCCOc1ccc2c(c1C(=O)O)OB(O)[C@@H](Sc1nncs1)C2")
0.6
>>> value_reported("COc1ccc2c(c1C(=O)O)OB(O)C1(CC1)C2")
10
>>> value_reported("O=C(O)c1cccc2c1OB(O)[C@H]1C[C@@H]21")
1.25
>>> value_reported("CSCCOc1ccc2c(c1C(=O)O)OB(O)[C@@H](Sc1nncs1)C2")
2.5
>>> value_reported("NC(=O)CCS[C@H]1Cc2cccc(C(=O)O)c2OB1O")
1.25
>>> value_reported("O=C(O)c1c(F)ccc2c1OB(O)[C@@H](Sc1nncs1)C2")
0.6
>>> value_reported("O=C(O)c1cccc2c1OB(O)[C@@H](Sc1nncs1)C2")
0.6
>>> value_reported("COc1ccc2c(c1C(=O)O)OB(O)[C@H]1C[C@@H]21")
0.6
>>> value_reported("COc1ccc2c(c1C(=O)O)OB(O)CC2")
0.6
>>> value_reported("NC(=O)CS[C@H]1Cc2cccc(C(=O)O)c2OB1O")
0.6

---

# Method description: Clearance in rat at 100 mg/kg, po administered via gavage by HPLC/MS analysis
# Type: ADME, organism-based
# Condition description: in vivo
Parameter measured: CL/F (mL/min/kg)

>>> value_reported("O=C(O)c1c(F)ccc2c1OB(O)[C@@H]1C[C@H]21")
18.5

---

Quick reference for MEC among some molecules
# System: Klebsiella pneumoniae
# Method description: Inhibition of Klebsiella pneumoniae KP1009 CTX-M-15 assessed as minimum concentration of compound required to reduce the MIC of aztreonam to 4 ug/ml
Parameter measured: MEC (µg/mL)

>>> value_reported("O=C(O)c1nccc2c1OB(O)[C@H]1C[C@@H]21")
20
>>> value_reported("O=C(O)c1cccc2c1OB(O)[C@@H]1C[C@H]21")
0.6
>>> value_reported("COc1ccc2c(c1C(=O)O)OB(O)[C@H]1C[C@@H]21")
0.6
>>> value_reported("COc1ccc2c(c1C(=O)O)OB(O)C(F)=C2")
1.25
>>> value_reported("CSCC(=O)N[C@H]1Cc2ccc(SC)c(C(=O)O)c2OB1O")
0.6
>>> value_reported("CSCC(=O)N[C@H]1Cc2ccc(Sc3nncn3C)c(C(=O)O)c2OB1O")
2.5
